B1: TPR t1 (parent)
chain: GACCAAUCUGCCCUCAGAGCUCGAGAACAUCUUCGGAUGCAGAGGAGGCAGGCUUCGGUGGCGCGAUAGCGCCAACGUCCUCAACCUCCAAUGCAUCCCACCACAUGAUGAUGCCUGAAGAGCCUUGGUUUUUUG

Variants of: B1
Test summary: polymerase ribozyme fitness, log enrichment relative to wild type (log ratio); higher = more active; in vitro selection for triplet polymerase activity
Classification field: enter yes (1) for polymerase ribozyme fitness (log ratio) values not below -2, no (0) for values below it.

Solved cases below.
C13A G23U G61C C88U C98G U112A G113A    no (0)
C13U C40U A43G G52U G58C A91C    no (0)
C12U A26U G93U    no (0)
A50U U81A A100C    yes (1)
C22A A37U C53U C73G    no (0)

// switching to the query variant
Is the recorded value of polymerase ribozyme fitness (log ratio) equal to or greater than -2 for this variant? A5G C12U G35A G71A U78A C85G C124A
no (0)
